molecular target: ER in T47D cells (Homo sapiens (Human), UniProt P03372); assay: In-cell Western (ICW) ER degradation assay in T47D cells; assay type: cell-based; details: ER degradation, 16 hrs treatment
Sequence (P03372 whole entry): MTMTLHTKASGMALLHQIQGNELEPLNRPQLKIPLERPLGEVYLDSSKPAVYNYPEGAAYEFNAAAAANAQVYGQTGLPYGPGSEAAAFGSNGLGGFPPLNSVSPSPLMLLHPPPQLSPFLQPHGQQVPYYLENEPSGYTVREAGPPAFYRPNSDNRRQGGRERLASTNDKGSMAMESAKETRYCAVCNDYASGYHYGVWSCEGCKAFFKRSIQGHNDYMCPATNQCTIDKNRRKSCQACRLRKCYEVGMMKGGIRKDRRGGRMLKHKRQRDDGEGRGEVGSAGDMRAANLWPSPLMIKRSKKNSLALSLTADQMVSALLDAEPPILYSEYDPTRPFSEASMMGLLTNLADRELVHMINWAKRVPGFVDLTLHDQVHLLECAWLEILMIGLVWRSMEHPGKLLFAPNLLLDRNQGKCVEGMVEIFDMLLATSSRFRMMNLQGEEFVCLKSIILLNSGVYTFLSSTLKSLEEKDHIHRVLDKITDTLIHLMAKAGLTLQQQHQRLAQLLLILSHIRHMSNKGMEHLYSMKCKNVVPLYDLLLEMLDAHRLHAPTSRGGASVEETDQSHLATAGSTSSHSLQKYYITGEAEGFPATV
quantity: DC50

In: Which measured DC50 value corresponds to O=C1CC[C@@H](N2Cc3cc4c(cc3C2=O)OC[C@H]2CN(CC3COC5(C3)CN(c3ccc([C@H]6c7ccc(O)cc7CC[C@H]6c6ccccc6)cc3)C5)CCN42)C(=O)N1 (stereo in doubt) ?
Out: < 1 nM

In: COc1cc(N2CCC3(CC2)CC(CN2CCN4c5cc6c(cc5OC[C@@H]4C2)C(=O)N([C@H]2CCC(=O)NC2=O)C6)CO3)ccc1[C@@H]1c2ccc(O)cc2CC[C@@H]1c1ccccc1 (some centres unmarked) , same question.
Out: 1 to 10 nM

In: Moving on to COc1nc(C(=O)NC2CCC(=O)NC2=O)ccc1N1CCN(CC2CCN(c3ccc([C@@H]4c5ccc(O)cc5CC[C@@H]4c4ccccc4)cc3)CC2)CC1 (single isomer, unassigned)
Out: 1 to 10 nM

In: Also COc1cc(N2CCC(CN3CC[C@@]4(c5ccc(N[C@@H]6CCC(=O)NC6=O)cc5)C(C3)C4(F)F)CC2)ccc1[C@@H]1c2ccc(O)cc2CC[C@@H]1c1ccccc1 (mixture of isomers) ?
Out: < 1 nM

In: Try the compound "COc1cc(N2CCC(CN3CCN4c5ccc6c(c5OC[C@H]4C3)CN([C@H]3CCC(=O)NC3=O)C6=O)CC2)c(F)cc1[C@H]1c2ccc(O)cc2CC[C@H]1c1ccccc1"
Out: 1 to 10 nM

In: Again, but for O=C1CC[C@H](Nc2ccc(C3CCN(C[C@@H]4COC5(CCN(c6ccc([C@@H]7c8ccc(O)cc8CC[C@@H]7c7ccccc7)cc6)CC5)C4)CC3)cc2)C(=O)N1 (single isomer, unassigned)
Out: 10 to 100 nM

In: # repeat for "COc1cc(N2CCC(CN3CC[C@]4(c5ccc(N[C@H]6CCC(=O)NC6=O)cc5)[C@H](C3)C4(F)F)CC2)ccc1[C@@H]1c2ccc(O)cc2CC[C@@H]1c1ccccc1"
Out: < 1 nM

In: Another compound: COc1cc(N2CCC(CN3CCN4c5cc6c(cc5OC[C@H]4C3)C(=O)N([C@@H]3CCC(=O)NC3=O)C6)CC2)ccc1[C@H]1c2ccc(O)cc2CC[C@H]1c1ccccc1 (stereo in doubt)
Out: < 1 nM

In: Another compound to look at: "COc1cc(N2CCC3(CC2)C[C@H](CN2CCC4(CC2)COc2cc5c(cc24)CN([C@H]2CCC(=O)NC2=O)C5=O)CO3)c(F)cc1[C@@H]1c2ccc(O)cc2CC[C@@H]1c1ccccc1"
Out: < 1 nM

In: Can you handle COc1cc(N2CCC(CN3CCC(c4ccc(N[C@@H]5CCC(=O)NC5=O)cc4F)CC3)CC2)ccc1[C@@H]1c2ccc(O)cc2CC[C@@H]1c1ccccc1 (single isomer, unassigned) next?
Out: < 1 nM

In: Now try O=C1CC[C@@H](Nc2ccc(C3CCN(CC4CC5(CCN(c6ccc([C@@H]7c8ccc(O)cc8CC[C@@H]7c7ccccc7)cc6)CC5)C4)CC3)cc2)C(=O)N1 (single isomer, unassigned) .
Out: 1 to 10 nM

Provenance of the data: patent US20260028354A1
